Target: von Willebrand factor (VWF) (Homo sapiens, UniProt P04275 P04275:764-2813)
Assay: filter; Bmax 56%; 2 mM CaCl2, 37 C
Details: tags: factor VIII free, Haematologic Technologies Inc; label: 5'-32P
Would you kindly list pKd for each of these binders?
As a rule, pKd stands for the negative log10 of the concentration, concentration in M.

Reported pKd, binder ACGAACUGCCCUCAGACUUAUGUCUGACGCACAGACGU (ssRNA, 2'-F C and U; 2'-OH A and G; 3' idT) [T51] : ____
7.77

Reported pKd, binder ACGAACUGCCCUCAGCUACUUUCAUGUUGCUGACGCACAGACGU (ssRNA, rAfCrGrArAfCmUrGfCfCfCfUfCrArGfCfUrAfCfUfUfUfCrAfUrGfUfUrGfCfUrGrAfCrGfCmAfCrArGrAfCrGfU-idT) [T25 vrt17] : ____
7.64
